Give measured half-life for each item. Keep answers brief.
protocol: Plasma pharmacokinetics after a single dose of liquid or solid oat product (compartmental PK model)
Format: in vivo, humans
condition-description: both sexes, human, plasma, oral, 62 g of oat flakes; solid, single dose
Hi! Could you send only the number? It should be in h, unit omitted.

What does the record list as half-life for CC1OC(OC2C(OC3CCC4(C)C(=CCC5C4CCC4(C)C5CC5OC6(CCC(C)(COC7OC(CO)C(O)C(O)C7O)O6)C(C)C54)C3)OC(CO)C(OC3OC(CO)C(O)C(OC4OC(CO)C(O)C(O)C4O)C3O)C2O)C(O)C(O)C1O (stereo not drawn) [AVE B, Avenacoside B] ?
3.76

And what about the compound COc1cc(/C=C/C=C/C(=O)Nc2ccc(O)cc2C(=O)O)ccc1O [AVA 2fd] ?
1.65

And what about the compound COc1cc(/C=C/C(=O)Nc2ccc(O)cc2C(=O)O)ccc1O [AVA 2f] ?
2.28

---

Give measured k el for each item. Keep answers brief.
protocol: Plasma pharmacokinetics after a single dose of liquid or solid oat product (compartmental PK model)
Format: in vivo, humans
condition-description: both sexes, human, plasma, oral, 62 g of oat flakes; solid, single dose, elimination rate (Table 2); read-out: ke (converted)
Hi! Could you send only the number? It should be in s⁻¹, unit omitted.

What does the record list as k el for O=C(/C=C/C=C/c1ccc(O)cc1)Nc1ccc(O)cc1C(=O)O ?
7.22e-05

And what about the molecule COc1cc(/C=C/C(=O)Nc2ccc(O)cc2C(=O)O)ccc1O ?
8.33e-05

And what about the molecule CC1OC(OC2C(OC3CCC4(C)C(=CCC5C4CCC4(C)C5CC5OC6(CCC(C)(COC7OC(CO)C(O)C(O)C7O)O6)C(C)C54)C3)OC(CO)C(OC3OC(CO)C(O)C(OC4OC(CO)C(O)C(O)C4O)C3O)C2O)C(O)C(O)C1O (centres unmarked) [AVE B, Avenacoside B] ?
5e-05

And what about the molecule COc1cc(/C=C/C=C/C(=O)Nc2ccc(O)cc2C(=O)O)ccc1O ?
0.000117

And what about the molecule CC1OC(OC2C(OC3CCC4(C)C(=CCC5C4CCC4(C)C5CC5OC6(CCC(C)(COC7OC(CO)C(O)C(O)C7O)O6)C(C)C54)C3)OC(CO)C(OC3OC(CO)C(O)C(O)C3O)C2O)C(O)C(O)C1O (centres unmarked) [AVE A, Avenacoside A] ?
5.83e-05
